Here's a roundup of IC50 values tested on Sortilin (Homo sapiens), taken from various published works.
Reported Metric: IC50 (µM)

The cases that follow already have their IC50 on record.
{"Molecule": "CC(C)(C)CC[C@H](NC(=O)c1cc(Cl)cc(Cl)c1)C(=O)O (single isomer, unassigned)", "Reported Metric": "IC50", "Observed Measurement": 0.17}
{"Molecule": "Cc1cccc(NC(=O)c2ccc([N+](=O)[O-])cc2C(=O)O)n1", "Reported Metric": "IC50", "Observed Measurement": 1.7}
{"Molecule": "Cc1ccnc(NC(=O)c2ccc(Br)cc2C(=O)O)c1", "Reported Metric": "IC50", "Observed Measurement": 2.4}

[P] CC(C)C[C@H](NC(=O)C(C)(C)Cc1ccc(Cl)cc1)C(=O)O
[Q] CC(C)C[C@H](NC(=O)C1CN(Cc2cc(Cl)cc(Cl)c2)CCO1)C(=O)O (some centres unmarked)
Among P and Q , whose measured IC50 is the smaller figure? State the label of the item chosen.
P
